# experimental_target: human recombinant Btk (Homo sapiens (Human), UniProt Q06187)
# Sequence (Q06187 whole entry): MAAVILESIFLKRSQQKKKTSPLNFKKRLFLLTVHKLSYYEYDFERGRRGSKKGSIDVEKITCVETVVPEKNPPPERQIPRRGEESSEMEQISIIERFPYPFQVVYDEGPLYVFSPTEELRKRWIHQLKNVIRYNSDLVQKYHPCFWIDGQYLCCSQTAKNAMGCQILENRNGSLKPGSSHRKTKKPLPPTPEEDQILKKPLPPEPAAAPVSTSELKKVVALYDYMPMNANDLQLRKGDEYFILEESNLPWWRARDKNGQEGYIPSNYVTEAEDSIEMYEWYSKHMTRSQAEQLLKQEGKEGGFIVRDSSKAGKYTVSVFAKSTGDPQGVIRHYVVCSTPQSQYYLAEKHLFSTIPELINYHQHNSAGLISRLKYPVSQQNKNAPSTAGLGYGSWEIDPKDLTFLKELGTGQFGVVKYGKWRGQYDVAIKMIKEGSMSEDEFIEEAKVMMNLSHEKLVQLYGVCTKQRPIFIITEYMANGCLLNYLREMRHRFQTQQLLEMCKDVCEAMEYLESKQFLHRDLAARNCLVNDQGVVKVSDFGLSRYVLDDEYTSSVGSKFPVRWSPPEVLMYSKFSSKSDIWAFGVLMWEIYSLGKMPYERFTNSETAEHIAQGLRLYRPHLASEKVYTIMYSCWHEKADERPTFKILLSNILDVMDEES
# procedure_text: Human Recombinant Btk Enzyme Assay
quantity_measured: log10 IC50 (log10 of the value in nM)

>>> observed_value("Cc1c(-c2c(F)cc(C(N)=O)c3[nH]c4cc(C(C)(C)O)ccc4c23)cccc1-n1c(=O)[nH]c2c(F)cccc2c1=O")
-0.34
>>> observed_value("Cn1c(=O)n(-c2cccc(-c3c(Cl)cc(C(N)=O)c4[nH]c5cc(C(C)(C)O)ccc5c34)c2Cl)c(=O)c2cccc(F)c21")
0.67
>>> observed_value("Cc1c(-c2c(Cl)cc(C(N)=O)c3[nH]c4cc(C(C)(C)O)ccc4c23)cccc1-n1c(=O)ccn(-c2ccc(F)cc2)c1=O [Example 23]")
-0.36
>>> observed_value("CC(C)(O)c1ccc2c(c1)[nH]c1c(C(N)=O)cc(Cl)c(-c3cccc(-n4c(=O)[nH]c5c(F)cccc5c4=O)c3Cl)c12")
-0.46
>>> observed_value("Cc1c(-c2c(Cl)cc(C(N)=O)c3[nH]c4cc(C(C)(C)O)ccc4c23)cccc1-n1c(=O)c2ccccc2n(C)c1=O")
0.00
